systemName: T1, synthetic non-modified human Hepcidin-25 (human, not fully specified)
T1 construct: also called hHepcidin-25; non-biotinylated human hepcidin
T1 peptide: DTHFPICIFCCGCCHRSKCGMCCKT
protocol: competition ELISA: non-biotinylated human hepcidin-25 titrated against a constant concentration of mutein; free mutein detected on plate-captured biotinylated human hepcidin
resultType: pIC50
Reminder that pIC50 means the negative base-10 logarithm of the concentration expressed in mol/L.

Completed entries (count: 2):
binder: lipocalin mutein of SEQ ID NO: 5 (designed binder, also called Lcn2 mutein) QDSTSDLIPAPPLSKVPLQQNFQDNQFHGKWYVVGAAGNSLLREDKDPMKMWATIYELKEDKSYNVTRVNFGGKKCSYLIETFVPGSQPGEFTLGSIKSRPGATSVLVRVVSTNYNQHAMVFFKLVTQNREVFWITLYGRTKELTSELKENFIRFSKSLGLPENHIVFPVPIDQCIDG
pIC50: 7.97
--
binder: lipocalin mutein of SEQ ID NO: 2 (designed binder, also called Lcn2 mutein) QDSTSDLIPAPPLSKVPLQQNFQDNQFHGKWYVVGTAGNSILREDKDPQKMWATIYELKEDKSYNVTRVFFEGKKCRYVIETFVPGSQPGEFTLGKIKSAPGGTSILVRVVSTNYNQHAMVFFKVVWQNRELFWITLYGRTKELTSELKENFIRFSKSLGLPENHIVFPVPIDQCIDG
pIC50: 8.05

Lab note: lipocalin mutein of SEQ ID NO: 10 (designed binder, also called Lcn2 mutein) QDSTSDLIPAPPLSKVPLQQNFQDNQFHGKWYVVGLAGNEILREDKDPMKMWATIYELKEDRSYNVTIVMFLAKKCEYLFQTFVPGSQPGEFTLGDIKSSPGRTSGLVRVVSTNYNQHAMVFFKVVWQNREVFWITLYGRTKELTPELKENFIRFSKSLGLPENHIVFPVPIDQCIDGF gave pIC50 of 9.74

These measurements were taken from patent US20170369542A1.
